Below: a set of entries, each annotated with reported MIC.
- System: Salmonella enteritidis G 14
- experimental-details: Antibacterial activity, agar-dilution MIC, organism No. 12
- Format: cell-based
- conditions: Salmonella enterica, ENTERITIDIS, read-out: Minimum Inhibitory Concentration
- From the text: Agar-dilution method was used for determination of the antibacterial activity and antifungal activity while using bouillon-agar culture medium, and the minimum inhibitory concentration of the specimen was expressed by μg/ml of the culture medium.
quantity-kind: MIC (mg/L)

>>> measured_result("[C-]#[N+]C12CC3(/C=C/C(=O)Nc4ccc(OC)cc4)OC3C1O2 (centres unmarked) [compound 53]")
0.39
>>> measured_result("[C-]#[N+]C12CC3(/C=C/C(=O)Nc4ccc(O)cc4)OC3C1O2 (centres unmarked) [compound 56]")
6.25
>>> measured_result("[C-]#[N+]C12CC3(/C=C/C(=O)NCCO)OC3C1O2 (centres unmarked) [compound 68]")
6.25
>>> measured_result("[C-]#[N+]C12CC3(/C=C/C(=O)Nc4nc[nH]n4)OC3C1O2 (centres unmarked) [compound 78]")
50
>>> measured_result("[C-]#[N+]C12CC3(/C=C/C(=O)Nc4ccncc4)OC3C1O2 (centres unmarked) [compound 72]")
12.5

====

- System: Proteus morganii IFO 3848
- experimental-details: Antibacterial activity, agar-dilution MIC, organism No. 18
- Type: cell-based
- conditions: Morganella morganii, IFO3848; Organism No. 18, bouillon-agar; read-out: Minimum Inhibitory Concentration
quantity-kind: MIC

>>> measured_result("[C-]#[N+]C12CC3(/C=C/C(=O)Nc4ccc(C(=O)c5ccccc5)cc4)OC3C1O2 (centres unmarked)")
"6.25 µg/mL"
>>> measured_result("[C-]#[N+]C12CC3(/C=C/C(=O)O)OC3C1O2 (stereo not drawn) [α substituted acrylic acid, reference compound]")
"12.5 µg/mL"
>>> measured_result("[C-]#[N+]C12CC3(/C=C/C(=O)Nc4cc(C(=O)OC)ccc4OC)OC3C1O2 (centres unmarked)")
"200 µg/mL"
>>> measured_result("[C-]#[N+]C12CC3(/C=C/C(N)=O)OC3C1O2 (centres unmarked)")
"3.13 µg/mL"
>>> measured_result("[C-]#[N+]C12CC3(/C=C/C(=O)Nc4ccccc4OC)OC3C1O2 (centres unmarked)")
"6.25 µg/mL"
>>> measured_result("[C-]#[N+]C12CC3(/C=C/C(=O)Nc4ccccc4C)OC3C1O2 (centres unmarked)")
"100 µg/mL"
>>> measured_result("[C-]#[N+]C12CC3(/C=C/C(=O)OCC(=O)c4ccc(Br)cc4)OC3C1O2 (centres unmarked) [Compound No. 4, p-bromophenacylβ-substituted acrylate]")
"100 µg/mL"
>>> measured_result("[C-]#[N+]C12CC3(/C=C/C(=O)OCc4c(C)cc(C)cc4C)OC3C1O2 (centres unmarked)")
"3.13 µg/mL"

====

Below: a set of entries, each annotated with reported MIC.
- System: Enterobacter cloacae 963
- experimental-details: Antibacterial activity, agar-dilution MIC, organism No. 24
- Type: cell-based
- conditions: Enterobacter cloacae, 963; Organism No. 24, bouillon-agar; read-out: Minimum Inhibitory Concentration
quantity-kind: MIC (µg/mL)

>>> measured_result("[C-]#[N+]C12CC3(/C=C/C(N)=O)OC3C1O2 (stereo not shown) [Compound No. 19]")
6.25
>>> measured_result("[C-]#[N+]C12CC3(/C=C/C(=O)OCC(C)C)OC3C1O2 (stereo not shown) [compound 18]")
200
>>> measured_result("[C-]#[N+]C12CC3(/C=C/C(=O)Nc4ccc(C)cc4)OC3C1O2 (stereo not shown) [compound 37]")
50
>>> measured_result("[C-]#[N+]C12CC3(/C=C/C(=O)OCC(=O)c4ccc(Cl)cc4)OC3C1O2 (stereo not shown) [compound 5]")
0.1
>>> measured_result("[C-]#[N+]C12CC3(/C=C/C(=O)Nc4ccc(F)cc4)OC3C1O2 (stereo not shown) [compound 43]")
12.5
>>> measured_result("[C-]#[N+]C12CC3(/C=C/C(=O)N(C(=O)NC4CCCCC4)C4CCCCC4)OC3C1O2 (stereo not shown) [Compound No. 25]")
50
>>> measured_result("[C-]#[N+]C12CC3(/C=C/C(=O)Nc4ccc5c(c4)CCC5)OC3C1O2 (stereo not shown) [compound 75]")
200
>>> measured_result("[C-]#[N+]C12CC3(/C=C/C(=O)Nc4ccccc4O)OC3C1O2 (stereo not shown) [compound 58]")
100
>>> measured_result("[C-]#[N+]C12CC3(/C=C/C(=O)OC)OC3C1O2 (stereo not shown) [Compound No. 1]")
25
>>> measured_result("[C-]#[N+]C12CC3(/C=C/C(=O)Nc4ccccc4)OC3C1O2 (stereo not shown) [Compound No. 36]")
200
>>> measured_result("[C-]#[N+]C12CC3(/C=C/C(=O)OCC(=O)c4ccc(Br)cc4)OC3C1O2 (stereo not shown) [Compound No. 4, p-bromophenacylβ-substituted acrylate]")
0.2
>>> measured_result("[C-]#[N+]C12CC3(/C=C/C(=O)NC4C(=O)N5C4SC(C)(C)C5C(=O)OCC(=O)c4ccc(Br)cc4)OC3C1O2 (stereo not shown) [Compound No. 33]")
25
>>> measured_result("[C-]#[N+]C12CC3(/C=C/C(=O)N4CCN(C)CC4)OC3C1O2 (stereo not shown) [compound 23]")
200
>>> measured_result("[C-]#[N+]C12CC3(/C=C/C(=O)Nc4cccc([N+](=O)[O-])c4)OC3C1O2 (stereo not shown) [compound 48]")
25

====

- System: Proteus morganii IFO 3848
- experimental-details: Antibacterial activity, agar-dilution MIC, organism No. 18
- Type: cell-based
- conditions: Morganella morganii, IFO3848; Organism No. 18, bouillon-agar; read-out: Minimum Inhibitory Concentration
So basically, if MIC comes in under 6 µg/mL it's Met, and if it's 6 µg/mL or more it's Not met.

>>> category_label("[C-]#[N+]C12CC3(/C=C/C(=O)Nc4ccc(N)cc4)OC3C1O2 (centres unmarked)")
"Met"
>>> category_label("[C-]#[N+]C12CC3(/C=C/C(=O)ON4C(=O)CCC4=O)OC3C1O2 (centres unmarked)")
"Not met"
>>> category_label("[C-]#[N+]C12CC3(/C=C/C(=O)Nc4ccc(S(N)(=O)=O)cc4)OC3C1O2 (centres unmarked)")
"Met"
>>> category_label("[C-]#[N+]C12CC3(/C=C/C(=O)NC4CCCCC4)OC3C1O2 (centres unmarked)")
"Met"
>>> category_label("[C-]#[N+]C12CC3(/C=C/C(=O)Nc4cccc(N)c4)OC3C1O2 (centres unmarked)")
"Met"
>>> category_label("[C-]#[N+]C12CC3(/C=C/C(=O)Nc4ccccc4)OC3C1O2 (centres unmarked)")
"Met"
>>> category_label("[C-]#[N+]C12CC3(/C=C/C(=O)NC4=NCCS4)OC3C1O2 (centres unmarked)")
"Met"
>>> category_label("[C-]#[N+]C12CC3(/C=C/C(=O)OCC(=O)c4ccc(C)cc4)OC3C1O2 (centres unmarked)")
"Not met"
>>> category_label("[C-]#[N+]C12CC3(/C=C/C(=O)OCc4cccc(OC)c4)OC3C1O2 (centres unmarked)")
"Met"
>>> category_label("[C-]#[N+]C12CC3(/C=C/C(=O)Nc4ccc(C(C)=O)cc4)OC3C1O2 (centres unmarked)")
"Not met"
>>> category_label("[C-]#[N+]C12CC3(/C=C/C(=O)OCc4cc([N+](=O)[O-])ccc4OC)OC3C1O2 (centres unmarked)")
"Not met"
>>> category_label("[C-]#[N+]C12CC3(/C=C/C(=O)Nc4cccc(C(=O)O)c4)OC3C1O2 (centres unmarked)")
"Not met"
>>> category_label("[C-]#[N+]C12CC3(/C=C/C(=O)N[C@@H](CC(=O)OCc4ccccc4)C(=O)OCc4ccccc4)OC3C1O2 (some centres unmarked)")
"Not met"
>>> category_label("[C-]#[N+]C12CC3(/C=C/C(=O)OCC(=O)c4ccc([N+](=O)[O-])cc4)OC3C1O2 (centres unmarked)")
"Not met"
>>> category_label("[C-]#[N+]C12CC3(/C=C/C(=O)N4CCOCC4)OC3C1O2 (centres unmarked)")
"Not met"
>>> category_label("[C-]#[N+]C12CC3(/C=C/C(=O)Nc4cccc(O)c4)OC3C1O2 (centres unmarked)")
"Met"
>>> category_label("[C-]#[N+]C12CC3(/C=C/C(=O)Nc4ccc(F)cc4)OC3C1O2 (centres unmarked)")
"Met"

====

Below: a set of entries, each annotated with reported MIC.
- Tested on: Pseudomonas aeruginosa IFO 3445
- experimental-details: Antibacterial activity, agar-dilution MIC, organism No. 15
- Assay type: cell-based
- conditions: Pseudomonas aeruginosa, IFO3445; Organism No. 15, bouillon-agar; read-out: Minimum Inhibitory Concentration
quantity-kind: MIC

>>> measured_result("[C-]#[N+]C12CC3(/C=C/C(=O)NC4=NCCS4)OC3C1O2 (centres unmarked)")
"> 200 µg/mL"
>>> measured_result("[C-]#[N+]C12CC3(/C=C/C(=O)Nc4cccc(C(=O)OC)c4)OC3C1O2 (centres unmarked)")
"> 200 µg/mL"
>>> measured_result("[C-]#[N+]C12CC3(/C=C/C(=O)N4CCN(C)CC4)OC3C1O2 (centres unmarked)")
"> 200 µg/mL"
>>> measured_result("[C-]#[N+]C12CC3(/C=C/C(=O)OCc4c(C)cc(C)cc4C)OC3C1O2 (centres unmarked)")
"> 100 µg/mL"
>>> measured_result("[C-]#[N+]C12CC3(/C=C/C(=O)NC4C(=O)N5C4SC(C)(C)C5C(=O)OCC(=O)c4ccc(Br)cc4)OC3C1O2 (centres unmarked)")
"> 200 µg/mL"
>>> measured_result("[C-]#[N+]C12CC3(/C=C/C(=O)Nc4cccc(C(=O)O)c4)OC3C1O2 (centres unmarked)")
"> 200 µg/mL"
>>> measured_result("[C-]#[N+]C12CC3(/C=C/C(=O)OCc4cccc(OC)c4)OC3C1O2 (centres unmarked)")
"> 100 µg/mL"
>>> measured_result("[C-]#[N+]C12CC3(/C=C/C(=O)N(C(=O)NC4CCCCC4)C4CCCCC4)OC3C1O2 (centres unmarked)")
"> 100 µg/mL"
>>> measured_result("[C-]#[N+]C12CC3(/C=C/C(=O)N[C@@H](Cc4ccccc4)C(=O)OCc4ccccc4)OC3C1O2 (some centres unmarked)")
"> 200 µg/mL"
>>> measured_result("[C-]#[N+]C12CC3(/C=C/C(=O)Nc4cccc(N)c4)OC3C1O2 (centres unmarked)")
"> 200 µg/mL"
>>> measured_result("[C-]#[N+]C12CC3(/C=C/C(=O)OCc4cc([N+](=O)[O-])ccc4O)OC3C1O2 (centres unmarked)")
"> 200 µg/mL"
>>> measured_result("[C-]#[N+]C12CC3(/C=C/C(=O)Nc4ccc(C)cc4)OC3C1O2 (centres unmarked)")
"> 200 µg/mL"
>>> measured_result("[C-]#[N+]C12CC3(/C=C/C(=O)OC)OC3C1O2 (centres unmarked)")
"> 200 µg/mL"
>>> measured_result("[C-]#[N+]C12CC3(/C=C/C(=O)Nc4cccc(C(F)(F)F)c4)OC3C1O2 (centres unmarked)")
"> 200 µg/mL"
>>> measured_result("[C-]#[N+]C12CC3(/C=C/C(=O)Nc4ccc(N)cc4)OC3C1O2 (centres unmarked)")
"> 200 µg/mL"
>>> measured_result("[C-]#[N+]C12CC3(/C=C/C(=O)Nc4cccc(Cl)c4)OC3C1O2 (centres unmarked)")
"> 200 µg/mL"
>>> measured_result("[C-]#[N+]C12CC3(/C=C/C(=O)OCc4ccccc4[N+](=O)[O-])OC3C1O2 (centres unmarked)")
"> 200 µg/mL"
